Study system: GDP-loaded KRAS G12D (Homo sapiens (Human), UniProt P01116, G12D)
Sequence (P01116-2 other isoform, or with tags, fused parts or gaps G12D): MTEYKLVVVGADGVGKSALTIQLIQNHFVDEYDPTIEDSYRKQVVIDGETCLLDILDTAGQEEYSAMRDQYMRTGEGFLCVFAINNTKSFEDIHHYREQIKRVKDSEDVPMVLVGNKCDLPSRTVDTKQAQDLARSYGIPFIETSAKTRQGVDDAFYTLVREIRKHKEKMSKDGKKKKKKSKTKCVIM
Test details: KRAS G12D (GDP) biochemical assay (TR-FRET probe displacement)
Run parameters: 2 hours
Reported pIC50 by item:
Scale for pIC50: -log10 of concentration given in mol/L; no unit attached.

Answered examples (8):
C#Cc1c(F)ccc2cccc(-c3nc4c5c(nc(OCC6(CN7CCN(CC(F)(F)F)CC7)CC6)nc5c3F)N3C[C@H]5CC[C@H](N5)[C@@H]3[C@@H](C)C4)c12 : 7.90
Oc1cc(-c2nc3c4c(nc(OC[C@@]56CCCN5C[C@H](F)C6)nc4c2F)N2C[C@H]4CC[C@H](N4)[C@H]2CO3)c2c(F)c(F)ccc2c1 : 9.30
C#Cc1c(F)ccc2cc(O)cc(-c3nc4c5c(nc(OCC6(CN7CCC(F)CC7)CC6)nc5c3F)N3C[C@H]5CC[C@H](N5)[C@H]3CO4)c12 : 9.70
C#Cc1c(F)ccc2cccc(-c3nc4c5c(nc(OC[C@]67CCCN6C[C@@H](OC(F)(F)F)C7)nc5c3F)N3C[C@H]5CC[C@H](N5)[C@H]3CC4)c12 (stereo in doubt) : 8.44
C#Cc1c(F)ccc2cc(O)cc(-c3nc4c5c(nc(OC[C@@]67CCCN6C[C@H](OC(C(F)(F)F)(C(F)(F)F)C(F)(F)F)C7)nc5c3F)N3C[C@H]5CC[C@H](N5)[C@H]3CC4)c12 : 8.57
C#Cc1c(F)ccc2cccc(-c3nc4c5c(nc(OCC6(CN7CC[C@H](OC(F)(F)F)C7)CC6)nc5c3F)N3C[C@H]5CC[C@H](N5)[C@H]3CCC4)c12 : 8.70
C#Cc1c(F)ccc2cccc(-c3nc4c5c(nc(OC[C@@]67CCCN6C[C@H](F)C7)nc5c3F)N3C[C@H]5CC[C@H](N5)[C@H]3C[C@H]4CC)c12 : 9.40
Oc1cc(-c2nc3c4c(nc(OC[C@@]56CCCN5C[C@H](F)C6)nc4c2F)N2C[C@H]4CC[C@H](N4)[C@H]2CO3)c2c(Cl)cccc2c1 : 9.40

Enquiry: Which pIC50 is listed for C#Cc1c(F)ccc2cccc(-c3nc4c5c(nc(OC[C@@]67CCCN6[C@H](COC(C)(C)C)CC7)nc5c3F)N3C[C@H]5CC[C@H](N5)[C@H]3CC4)c12 ?
Return: 8.62

Enquiry: Record request: pIC50 value, item C#Cc1c(F)ccc2cc(O)cc(-c3c(Cl)c4c5c(nc(OC[C@@]67CCCN6C[C@H](F)C7)nc5c3F)N3C[C@H]5CC[C@H](N5)[C@H]3CC4)c12
Return: 10.00

Enquiry: Find the recorded pIC50 belonging to C#Cc1c(F)ccc2cccc(-c3nc4c5c(nc(OC[C@@]67C[C@@H](F)CN6CC6(CC6)C7)nc5c3F)N3C[C@H]5CC[C@H](N5)[C@H]3CC4)c12 and report it.
Return: 9.70

====

System: GP2D (KRAS G12D) cells
Test details: 2D cell viability assay (CellTiter-Glo)
Type: cell-based
Run parameters: GP2d, 96 h, 4 days
Test readout: EC50
Remember to put the unit after the number in your answer.

C#Cc1c(F)ccc2cccc(-c3nc4c5c(nc(OC[C@@]67CCCN6[C@H](CF)CC7)nc5c3F)N3C[C@H]5CC[C@H](N5)[C@H]3CC4)c12 : 3.5 nM
C#Cc1c(F)ccc2cccc(-c3nc4c5c(nc(OC[C@@]67CCCN6[C@H](COc6ncncc6C(F)F)CC7)nc5c3F)N3C[C@H]5CC[C@H](N5)[C@H]3CCC4)c12 : 1.6 nM

Enquiry: # query: EC50 of entry C#Cc1c(F)ccc2cc(O)cc(-c3nc4c5c(nc(OCC6(CN7CCC8(CC7)CC8)CC6)nc5c3F)N3C[C@H]5CC[C@H](N5)[C@H]3CC4)c12
Return: 1.5 nM

Enquiry: Requested field: EC50. Item: C#Cc1c(F)ccc2cccc(-c3nc4c5c(nc(OC[C@@]67CCCN6[C@H](COC(C(F)(F)F)(C(F)(F)F)C(F)(F)F)CC7)nc5c3F)N3C[C@H]5CC[C@H](N5)[C@@H]3[C@@H](C)C4)c12
Return: 67.4 nM

Enquiry: Give the measured EC50 of C#Cc1c(F)ccc2cccc(-c3nc4c5c(nc(OC[C@@]67CCCN6C[C@H](F)C7)nc5c3F)N3C[C@H]5CC[C@H](N5)[C@@H]3[C@H](C)CC4)c12 .
Return: 100 nM
